Attribution: paper PMC5540273

system: EPHB6; conditions: concentration: 1 μM, replicates: in singlicate; n = 1;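 note: KINOMEscan kinase panel screen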
Here, each record is paired with measured %Inh data.

- molecule: "COc1cccc(C2=C(Nc3cc(Cl)c(O)c(Cl)c3)C(=O)NC2=O)c1 [SB-390767]"
  %Inh, %: 46
- molecule: "CN1c2ccc(-c3ccc(C(N)=O)cc3)cc2-c2[nH]ncc2S1(=O)=O"
  %Inh, %: 23
- molecule: "CC(=O)c1c(C)c2cnc(Nc3ccc(N4CCNCC4)cn3)nc2n(C2CCCC2)c1=O"
  %Inh, %: 17
- molecule: "Cc1ccccc1-c1cc(-c2c[nH]nc2-c2ccccn2)ccn1 [GW680061]"
  %Inh, %: 4
- molecule: "COc1cc2ncnc(Nc3cccc(Br)c3)c2cc1OC.Cl [GI230329]"
  %Inh, %: 3

###

system: TRKC; construct: gene NTRK3; conditions: concentration: 1 μM, replicates: in singlicate; n = 1

- smiles-notation: "O=C1NC(=O)C(c2ccc(Cl)cc2)=C1Nc1ccc(O)cc1"
  %Inh [%]: 0
- smiles-notation: "CC(C)c1ccc(O)cc1Nc1ccnc2ccc(C(F)(F)F)cc12"
  %Inh [%]: 37
- smiles-notation: "CC(=O)c1c(C)c2cnc(Nc3ccc(N4CCNCC4)cn3)nc2n(C2CCCC2)c1=O"
  %Inh [%]: 0
- smiles-notation: "COc1ccc(Nc2nccc(-c3ccc(NC(=O)c4cc5cc(F)ccc5[nH]4)cc3)n2)cc1"
  %Inh [%]: 0
- smiles-notation: "CNCc1ccc2nc(NC(=O)c3ccc(C(C)(C)C)cc3)cn2c1"
  %Inh [%]: 28
- smiles-notation: "Cn1cncc1-c1cc2c(Nc3ccc(OCc4ccccc4)cc3)ncnc2cn1"
  %Inh [%]: 0
- smiles-notation: "Cn1cnc2c(N)ncnc21"
  %Inh [%]: 7
- smiles-notation: "COc1cccc(NC(=O)Nc2ccc(C)c(-c3ccc(C(=O)Nc4ccncc4)cc3)c2)c1"
  %Inh [%]: 2

###

tested on: PRKCH; conditions: concentration: 1 μM, replicates: in singlicate; n = 1
Classes (%Inh): bin 1: < 3%; bin 2: ≥ 3% and < 20%; bin 3: ≥ 20%

- compound: "O=C(Nc1n[nH]c2nc(-c3ccco3)c(Br)cc12)C1CCN(Cc2ccccc2)C1.O=C(O)[C@H](O)[C@@H](O)C(=O)O (stereo not drawn) [SB-742034]"
  assigned-category: "bin 2"
- compound: "O=C(Nc1n[nH]c2nc(-c3cccs3)c(Br)cc12)C1CCCC1 [SB-743341]"
  assigned-category: "bin 3"
- compound: "CC(C)c1ccc(O)cc1Nc1ccnc2ccc(C(F)(F)F)cc12 [GW482059]"
  assigned-category: "bin 3"
- compound: "Cc1ccc(NC(=O)Nc2ccc(Cl)cc2)cc1-c1ccc(C(=O)Nc2ccncc2)cc1 [GSK1398472]"
  assigned-category: "bin 3"
- compound: "CN1c2ccc(-c3ccc(C(N)=O)cc3)cc2-c2[nH]ncc2S1(=O)=O"
  assigned-category: "bin 1"
- compound: "CC(=O)c1cccc(NC(=O)NC2CCN(c3ccnc(Nc4ccc(F)cc4)n3)C2)c1 (stereo not drawn) [GSK1379710]"
  assigned-category: "bin 1"
- compound: "COC(=O)C(Cc1ccccc1)NC(=O)NC1CCN(c2ccnc(Nc3ccc(F)cc3)n2)C1 (stereo not drawn) [GSK1379714]"
  assigned-category: "bin 2"
- compound: "CS(=O)(=O)CCNCc1nc(-c2ccc3ncnc(Nc4ccc5c(cnn5Cc5ccccc5)c4)c3c2)cs1.Cl.Cl [GW569716]"
  assigned-category: "bin 2"
- compound: "CC(C)c1cc(-c2ccc3c(N)n[nH]c3c2)nc(N)n1 [GSK2250882]"
  assigned-category: "bin 1"
- compound: "COc1ccc(-c2coc3ccc(-c4nnc(C)o4)cc23)cc1"
  assigned-category: "bin 2"
- compound: "FC(F)(F)c1ccccc1-c1cc(-c2c[nH]nc2-c2ccccn2)ccn1 [GW679396]"
  assigned-category: "bin 2"
- compound: "O=c1cc(N2CCOCC2)nc2n(Cc3ccccc3F)ccn12 [GSK2297428]"
  assigned-category: "bin 2"
- compound: "COc1ccc(Nc2nccc(NCCNC(=O)Nc3cc(C)ccc3C)n2)cc1 [GSK1379899]"
  assigned-category: "bin 3"
- compound: "Cc1nccc(-c2c(-c3ccc(F)cc3)ncn2CCCN2CCOCC2)n1.Cl [SB-282975]"
  assigned-category: "bin 1"
- compound: "CNC(=O)c1ccc(C)c(-n2c(C)cc(OCc3ccc(F)cc3F)c(Br)c2=O)c1"
  assigned-category: "bin 1"
